Hello, the source for this data is patent US7214699B2, in case you need it.

Please go through the items and note down their melting point.
Counter-ions that a name gives are not always drawn.

Value of melting point reported for the compound CCC=C(CCC)c1c2cccc(-c3c(C)cc(C)cc3C)c2nn1C.Cl [Ib] is 132 to 135 °C

Record CCN(CCOC)c1c2cccc(-c3c(C)cc(C)cc3C)c2nn1C.Cl . Reported melting point: 142 to 146 °C

The compound identified as CCCN(CCC)c1c2cccc(-c3ccc(OC)cc3OC)c2nn1C.Cl registered its melting point at 62 to 64.3 °C

Record CCCN(CC1CC1)c1c2cccc(-c3ccc(Cl)cc3Cl)c2nn1C.Cl , field melting point: 137 to 139 °C

Form field melting point, entry CCCN(CCC)c1c2cccc(-c3ccc(Cl)cc3Cl)c2nn1C (as salt: hydrochloride) : 153 to 157 °C

The compound identified as CCCN(CCC)c1c2cccc(-c3ccc(OC)cc3C)c2nn1C.Cl registered its melting point at 60 to 70 °C
